Collected Affinity ELISA CPE mutant ratio (1:3, pH 6.0/7.4) values appear next to each entry.
system-under-test: T1, Axl (Homo sapiens, UniProt P30530)
T1 sequence (P30530 26-451 limits assumed): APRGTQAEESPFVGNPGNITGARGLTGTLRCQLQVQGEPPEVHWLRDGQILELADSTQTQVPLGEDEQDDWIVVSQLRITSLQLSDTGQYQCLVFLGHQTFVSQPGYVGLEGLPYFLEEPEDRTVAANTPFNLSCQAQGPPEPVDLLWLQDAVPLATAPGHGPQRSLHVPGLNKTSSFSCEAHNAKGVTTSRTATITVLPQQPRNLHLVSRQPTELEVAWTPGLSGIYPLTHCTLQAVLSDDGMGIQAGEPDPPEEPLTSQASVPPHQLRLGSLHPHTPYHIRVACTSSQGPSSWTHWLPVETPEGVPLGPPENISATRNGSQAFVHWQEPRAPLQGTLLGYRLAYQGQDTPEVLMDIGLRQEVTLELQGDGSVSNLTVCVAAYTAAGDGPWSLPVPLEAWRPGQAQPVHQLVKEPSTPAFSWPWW
procedure-summary: Affinity ELISA of CPE mutant antibodies for binding to Axl at pH 6.0 over pH 7.4
particulars: light chain variable region mutants; 1:3 dilution
In your answer, state the number alone without any accompanying words.

Examples with answers:
LC-A034D (antibody, V domains shown) VH: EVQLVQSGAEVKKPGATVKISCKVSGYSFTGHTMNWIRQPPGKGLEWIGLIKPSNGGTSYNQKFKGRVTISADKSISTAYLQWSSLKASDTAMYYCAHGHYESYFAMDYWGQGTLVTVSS VL: DIQMTQSPSSLSASVGDRVTITCKASQDVSSAVDWYQQKPGQAPRLLIYWASTRHTGVPSRFSGSGSGTEFTLTISSLQPDDFATYYCQEHFSTPLTFGQGTKVEIK
3.005
LC-P095A (antibody, V domains shown) VH: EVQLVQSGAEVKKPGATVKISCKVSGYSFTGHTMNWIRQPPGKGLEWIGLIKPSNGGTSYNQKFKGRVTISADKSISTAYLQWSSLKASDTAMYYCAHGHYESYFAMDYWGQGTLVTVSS VL: DIQMTQSPSSLSASVGDRVTITCKASQDVSSAVAWYQQKPGQAPRLLIYWASTRHTGVPSRFSGSGSGTEFTLTISSLQPDDFATYYCQEHFSTALTFGQGTKVEIK
2.523

Turning now to a further record.
# Affinity ELISA CPE mutant ratio (1:3, pH 6.0/7.4) lookup, item LC-P095E (antibody, V domains shown) VH: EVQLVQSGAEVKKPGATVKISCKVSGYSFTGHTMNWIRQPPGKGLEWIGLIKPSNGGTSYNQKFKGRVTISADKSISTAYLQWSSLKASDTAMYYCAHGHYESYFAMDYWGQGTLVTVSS VL: DIQMTQSPSSLSASVGDRVTITCKASQDVSSAVAWYQQKPGQAPRLLIYWASTRHTGVPSRFSGSGSGTEFTLTISSLQPDDFATYYCQEHFSTELTFGQGTKVEIK
7.121
